Test system: HCT-15
Mark each entry MET if its GI50 sits below 10 µM, and NOT MET for all others.

As a guide, the following entries are already answered.
| compound | class.label |
| --- | --- |
| O=c1oc2c3ccc4ccccc4c3n(Cc3nc4ccccc4[nH]3)c2c2ccccc12 | MET |
| CN1CCN(/C(N)=C(\C#N)C(=O)Nc2ccc(Cl)cc2)CC1 | NOT MET |
| COC(=O)CCC(=O)N1Cc2cc(C)ccc2N(C(=O)CCC(=O)OC)Cc2cc(C)ccc21 | NOT MET |
| CC(=O)NC1C(OCc2ccccc2)OC(CO)C(O)C1OC(C)C(=O)NC(C)C(=O)NC(CCC(=O)NCCCCNc1c2ccccc2nc2cccc([N+](=O)[O-])c12)C(N)=O (stereo not drawn) | MET |
| O=Cc1ccc(-c2nccc3c2[nH]c2ccccc23)o1 | NOT MET |

Is it true that GI50 reported for NNC(=O)CCCCCCCC(=O)O is less than 10 µM?
NOT MET

Is it true that GI50 reported for COc1ccc(-c2cc(C(=O)Nc3cc(C(F)(F)F)cc(C(F)(F)F)c3)c3ccccc3n2)cc1 is less than 10 µM?
NOT MET
